target: human Cot catalytic domain (30-397 amino acids) (Homo sapiens, UniProt P41279); construct: Purified recombinant human Cot catalytic domain (30-397 amino acids) was purchased from Cama Biosciences; purchased Cama Biosciences (so in the source); experiment: High Throughput Cot Biochemical Assay (KinEASE TR-FRET); settings: Cot KinEASE TR-FRET (HTRF) biochemical assay, 400 μM ATP; read-out: IC50 HTRF
Sequence (P41279 30-397): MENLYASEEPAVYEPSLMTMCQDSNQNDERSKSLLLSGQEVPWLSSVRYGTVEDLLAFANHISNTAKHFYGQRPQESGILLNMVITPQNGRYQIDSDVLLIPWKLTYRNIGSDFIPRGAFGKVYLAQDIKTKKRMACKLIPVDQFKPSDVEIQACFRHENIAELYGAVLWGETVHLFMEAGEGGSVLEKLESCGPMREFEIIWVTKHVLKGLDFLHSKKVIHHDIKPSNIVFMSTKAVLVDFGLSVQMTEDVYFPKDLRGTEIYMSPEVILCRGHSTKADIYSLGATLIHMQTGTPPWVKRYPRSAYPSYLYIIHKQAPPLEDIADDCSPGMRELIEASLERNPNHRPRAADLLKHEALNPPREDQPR
Each entry below lists one item and its recorded IC50 value.
Answer as a quantity: numeral, then unit.

Would you kindly share the measured IC50 for `[2H][C@](Nc1cc(F)c2ncc(C#N)c(NCC(C)(C)C)c2c1)(c1cccc(C#N)c1)c1cn(C2CC2)nn1` ?
3 nM

IC50 for `[2H][C@](Nc1cc(Cl)c2ncc(C#N)c(Nc3cnc(F)c(F)c3)c2c1)(c1cccc(C#N)c1)c1c[nH]nn1` ?
5 nM

Look up IC50: `[2H][C@](Nc1cc(-c2ccccn2)c2ncc(C#N)c(NCC(C)(C)C)c2c1)(c1ccc(F)cc1)c1cn(C2CC2)nn1`
2000 nM

---
IC50 lookup needed for `[2H][C@@](Nc1cc(Cl)c2ncc(C#N)c(NCC(C)(C)C)c2c1)(c1cn(C2CC2)nn1)c1cccc(C#N)c1Cl` , thanks.
4 nM

###

system: TNFα production in LPS-stimulated human monocytes; experiment: Cot Monocyte TNFα Cell Based Assay; details: Homo sapiens, Monocyte, LPS-stimulated human monocytes, TNFα TR-FRET; read-out: EC50 TNF
Measured pEC50 values are reported for all entries that follow.
In textbook form, pEC50 equals minus log to base ten of the concentration in mol/L.

Find the measured pEC50: item `CC(C)(C)CNc1c(C#N)cnc2c(C#N)cc(N[C@H](c3cn(C4(C(F)(F)F)CC4)nn3)c3cccc(C#N)c3Cl)cc12` , target or system TNFα production in LPS-stimulated human monocytes.
6.66

Query the reported pEC50 for TNFα production in LPS-stimulated human monocytes; item: `CC(C)(C)CNc1c(C#N)cnc2c(C#N)cc(N[C@@H](c3ccc(F)cc3)c3cn(C4(c5cnccn5)CC4)nn3)cc12`
7.03

Consider the record given below.
For the record `Cc1c(-c2ccnnc2)cccc1[C@H](Nc1cc(C#N)c2ncc(C#N)c(NCC(C)(C)C)c2c1)c1cn(C2(C(F)(F)F)CC2)nn1` , what value of pEC50 is listed for TNFα production in LPS-stimulated human monocytes?
7.24

###

pIC50 by entry:
target: human Cot catalytic domain (30-397 amino acids) (Homo sapiens, UniProt P41279); construct: Purified recombinant human Cot catalytic domain (30-397 amino acids) was purchased from Cama Biosciences; purchased Cama Biosciences (so in the source); assay: High Throughput Cot Biochemical Assay (KinEASE TR-FRET); details: Cot biochemical HTRF (KinEASE TR-FRET) assay; read-out: IC50 HTRF
Reminder that pIC50 is minus the log10 of a molar concentration.

Request the reported pIC50 associated with CCN1CCC(n2cc(C(Nc3cc(Cl)c4ncc(C#N)c(Nc5ccc(F)c(Cl)c5)c4c3)c3cc(F)c(F)c(F)c3)nn2)CC1 (stereo not shown)
7.49

###

biological target: human Cot catalytic domain (30-397 amino acids) (Homo sapiens, UniProt P41279); construct: Purified recombinant human Cot catalytic domain (30-397 amino acids) was purchased from Cama Biosciences; purchased Cama Biosciences (so in the source); assay: High Throughput Cot Biochemical Assay (KinEASE TR-FRET); conditions: Cot KinEASE TR-FRET, 400 μM ATP; read-out: IC50 HTRF
Recorded Metric: pIC50
For clarity, pIC50 is expressed as the negative log10 of concentration in mol/L.

Sample CCN1CC(n2cc(C(Nc3cc(Cl)c4ncc(C#N)c(Nc5ccc(F)c(Cl)c5)c4c3)c3ccc(Cl)cc3)nn2)C1 (stereo not drawn) — what was its pIC50?
7.05

Return reported pIC50; argument: CCN1CCC(n2cc(C(Nc3cc(Br)c4ncc(C#N)c(Nc5ccc(F)c(Cl)c5)c4c3)c3ccc(F)cc3)nn2)CC1 (stereo not drawn)
8.15

What value of measured pIC50 is listed for `CC(C)(C)N1CCC(n2cc([C@@H](Nc3cc(Cl)c4ncc(C#N)c(Nc5ccc(C#N)c(Cl)c5)c4c3)c3ccc(Cl)cc3)nn2)CC1` ?
7.22

Form field: reported pIC50 of `[2H]c1c([C@@]([2H])(Nc2cc(C#N)c3ncc(C#N)c(NCC(C)(C)C)c3c2)c2c(F)cccc2Cl)nnn1C1(C)CC1`
7.48

Let's switch to this compound now.
Give its pIC50 value. Item: `Cc1c(-c2cncn2C)cccc1[C@H](Nc1cc(Cl)c2ncc(C#N)c(NCC(C)(C)C)c2c1)c1cn(C2(C(F)(F)F)CC2)nn1`
8.22
